- Test system: NCI-H226 lung
- test details: NCI tumour cell line growth inhibition, 48 h
Quick list: TGI per entry.

- compound: "COC(=O)C1(C(=O)OC)Cc2ccc(C)cc2C2=C1C(=O)c1ccccc1C2=O"
  study system: "NCI-H226 lung"
  TGI: "> 100 µM"
- compound: "CC(C)(C)C(=O)CP(=O)(O)O"
  study system: "NCI-H226 lung"
  TGI: "> 100 µM"
- compound: "Oc1cc(-c2ccc(Cl)cc2)cn2c1nc1ccccc12"
  study system: "NCI-H226 lung"
  TGI: "> 100 µM"
- compound: "CC1(C)C/C(=N/O)c2c(nc3ccc4ccccc4c3c2-c2ccc(Cl)cc2)C1"
  study system: "NCI-H226 lung"
  TGI: "46.3 µM"
- compound: "COc1ccccc1N1CCN(CCc2c[nH]c3cc4c(cc23)OCO4)CC1"
  study system: "NCI-H226 lung"
  TGI: "> 100 µM"
- compound: "CC(=O)c1cccc(Nc2nc3ccc(Cl)cc3c3[nH]c4ccccc4c23)c1"
  study system: "NCI-H226 lung"
  TGI: "67.1 µM"
- compound: "O=Cc1ccccc1B(O)O"
  study system: "NCI-H226 lung"
  TGI: "> 100 µM"
- compound: "CC(=O)C(CN(Cc1ccccc1)Cc1ccccc1)C(c1ccccc1)c1c(O)c2ccccc2oc1=O (stereo unspecified)"
  study system: "NCI-H226 lung"
  TGI: "> 100 µM"
- compound: "CC1=C(C)C1[N+](=O)[O-]"
  study system: "NCI-H226 lung"
  TGI: "> 100 µM"
- compound: "O=C(NCCCCCCNC(=O)OCCSCCn1cc(C(=O)NC(=O)OCc2ccccc2)c(=O)[nH]c1=O)OCCSCCn1cc(C(=O)NC(=O)OCc2ccccc2)c(=O)[nH]c1=O"
  study system: "NCI-H226 lung"
  TGI: "> 100 µM"
- compound: "CN(C)CCNC(=O)c1cccc2[nH]c(-c3cccnc3)nc12"
  study system: "NCI-H226 lung"
  TGI: "56.6 µM"
- compound: "C/C(=N\\NC(=S)N1CCN(C)CC1)c1nc2ncccc2[nH]1"
  study system: "NCI-H226 lung"
  TGI: "> 100 µM"
- compound: "C[n+]1c2ccccc2c(NC(CS)C(=O)O)c2ccccc21 (stereo unspecified)"
  study system: "NCI-H226 lung"
  TGI: "> 100 µM"
- compound: "Cc1cc(Cc2cc(C)cc(C(C)(C)C)c2O)c(O)c(Cc2cc(C)cc(C(C)(C)C)c2O)c1"
  study system: "NCI-H226 lung"
  TGI: "11.5 µM"
- compound: "CC(C)(CN1CCCCC1)C(=O)/C=C/c1ccc(Cl)cc1"
  study system: "NCI-H226 lung"
  TGI: "14.7 µM"
- compound: "COc1cccc(-c2nc3ccccc3c(=O)[nH]2)c1OC"
  study system: "NCI-H226 lung"
  TGI: "> 100 µM"
- compound: "NC(CCC(=O)NC(CSC(=O)N(O)c1ccccc1)C(=O)NCC(=O)O)C(=O)O (stereo unspecified)"
  study system: "NCI-H226 lung"
  TGI: "> 1000 µM"
- compound: "CCN(CC)CCn1c2ccccc2c(=O)c2c(O)ccc(O)c21"
  study system: "NCI-H226 lung"
  TGI: "> 56.2 µM"
- compound: "O=S(Nc1ccccc1)c1ccc(Cl)c(Cl)c1 (stereo unspecified)"
  study system: "NCI-H226 lung"
  TGI: "> 100 µM"
- compound: "COc1ccc(NC(=O)COCCOCCNC[C@@H]2C(=O)O[C@H]3[C@H]2CC/C(COC(=O)OC/C2=C/CC[C@@]4(C)O[C@H]4[C@H]4OC(=O)[C@@H](CN(C)C)[C@@H]4CC2)=C\\CC[C@@]2(C)O[C@@H]32)c(O)c1C(N)=O"
  study system: "NCI-H226 lung"
  TGI: "16.2 µM"
- compound: "OC(c1cc(-c2ccc(Cl)cc2)nc2ccccc12)C1CCCCN1 (stereo unspecified)"
  study system: "NCI-H226 lung"
  TGI: "39 µM"
- compound: "COc1cc(NC(=O)CSc2nc3ccc(C)cc3c(=O)n2Cc2ccccc2)cc(OC)c1OC"
  study system: "NCI-H226 lung"
  TGI: "22.3 µM"
- compound: "COc1ccc(N2C(=O)C3c4[nH]c5ccccc5c4C4CC(C)CC(C)C4C3C2=O)cc1 (stereo unspecified)"
  study system: "NCI-H226 lung"
  TGI: "> 100 µM"
- compound: "Nc1ccc(S(=O)(=O)Nc2ccc(Nc3c4ccccc4nc4ccccc34)cc2)cc1"
  study system: "NCI-H226 lung"
  TGI: "0.851 µM"
- compound: "COC(=O)[C@]12CC=C3O[C@@H]4OC5(CCCCC5)O[C@@H]4C3[C@@H]1C(=O)CCC2=O (stereo partly specified)"
  study system: "NCI-H226 lung"
  TGI: "> 100 µM"
- compound: "C/C(=N\\NC(=O)c1ccncc1)c1ccccc1F"
  study system: "NCI-H226 lung"
  TGI: "> 10 µM"
- compound: "C=CCc1ccccc1CC1(OCC)OC(=O)c2ccccc21 (stereo unspecified)"
  study system: "NCI-H226 lung"
  TGI: "> 100 µM"
- compound: "COc1ccc(S(=O)(=O)N/N=C/c2cc(I)cc([N+](=O)[O-])c2O)cc1OC"
  study system: "NCI-H226 lung"
  TGI: "62.1 µM"
- compound: "N#Cc1cc(-c2nc3c(F)cccc3s2)ccc1N"
  study system: "NCI-H226 lung"
  TGI: "> 100 µM"
- compound: "COc1cc2c(cc1OCCCCCOc1ccc(-n3c(C)nc4ccccc4c3=O)cc1)N=C[C@@H]1CCCN1C2=O"
  study system: "NCI-H226 lung"
  TGI: "0.466 µM"
- compound: "Oc1ccccc1C=Nc1nc(SCc2ccccc2)nc2[nH]ncc12"
  study system: "NCI-H226 lung"
  TGI: "> 100 µM"
- compound: "CNCCNc1c2c(c(NCCNC)c3[nH]ccc13)C(=O)c1ccccc1C2=O"
  study system: "NCI-H226 lung"
  TGI: "1.84 µM"
- compound: "Cc1cc2[nH]c(=O)c3c4ccccc4cn3c2cc1C"
  study system: "NCI-H226 lung"
  TGI: "36.7 µM"
- compound: "NC1CC(Cl)c2c(Cl)sc(Cl)c21 (stereo unspecified)"
  study system: "NCI-H226 lung"
  TGI: "> 100 µM"
- compound: "CC[C@@]1(OC(=O)CN)C(=O)OCc2c1cc1n(c2=O)Cc2cc3c(N)cccc3nc2-1"
  study system: "NCI-H226 lung"
  TGI: "0.498 µM"
- compound: "Cc1ccc(/C=C2\\CN(C)CC3C2=NN(c2ccccc2)C3c2ccc(C)cc2)cc1 (stereo unspecified)"
  study system: "NCI-H226 lung"
  TGI: "> 100 µM"
